All values here come from paper PMC8773328.

- EXPERIMENTAL_TARGET: Transient receptor potential vanilloid member 1 (TRPV1) (Rattus norvegicus)
- Construct: Rat TRPV1 cDNA (NM_031982)
- Sequence (O35433 whole entry): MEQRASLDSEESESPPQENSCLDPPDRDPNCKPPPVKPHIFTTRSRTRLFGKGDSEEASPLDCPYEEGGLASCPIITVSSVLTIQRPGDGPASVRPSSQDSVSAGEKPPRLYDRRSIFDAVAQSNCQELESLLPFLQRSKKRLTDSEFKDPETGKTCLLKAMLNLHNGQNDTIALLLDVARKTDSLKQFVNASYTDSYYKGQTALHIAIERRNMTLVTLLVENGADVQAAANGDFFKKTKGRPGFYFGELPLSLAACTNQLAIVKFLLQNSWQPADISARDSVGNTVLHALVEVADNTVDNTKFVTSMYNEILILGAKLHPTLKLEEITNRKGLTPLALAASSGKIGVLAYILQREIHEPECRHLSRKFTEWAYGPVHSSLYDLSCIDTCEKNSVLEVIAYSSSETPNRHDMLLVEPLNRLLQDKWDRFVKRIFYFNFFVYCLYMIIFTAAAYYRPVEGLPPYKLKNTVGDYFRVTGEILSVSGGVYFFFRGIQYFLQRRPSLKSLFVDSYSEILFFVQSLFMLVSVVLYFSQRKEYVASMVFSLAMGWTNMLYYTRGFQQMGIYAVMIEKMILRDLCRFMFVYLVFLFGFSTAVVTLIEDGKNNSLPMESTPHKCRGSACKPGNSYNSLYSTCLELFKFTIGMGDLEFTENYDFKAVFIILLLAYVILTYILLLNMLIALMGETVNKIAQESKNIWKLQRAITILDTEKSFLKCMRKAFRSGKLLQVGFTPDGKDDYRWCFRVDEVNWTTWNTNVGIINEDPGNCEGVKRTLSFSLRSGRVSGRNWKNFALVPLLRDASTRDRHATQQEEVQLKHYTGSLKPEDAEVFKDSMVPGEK
- RUN_DESCRIPTION: two-electrode voltage clamp in Xenopus oocytes expressing TRPV1, inhibition of capsaicin-induced current
- Assay type: cell-based
ENDPOINT_NAME: IC50 (µM)
All answers are understood in µM, so give the number only.

Using the record for C[C@@H]1O[C@@H](O[C@H]2[C@H](Oc3cc(O)c4c(c3)O[C@H](c3ccc(O)cc3)CC4=O)O[C@H](CO)[C@@H](O)[C@@H]2O)[C@H](O)[C@H](O)[C@H]1O [naringin] , report its IC50.
33.3
